Test: collision cross section in nitrogen (drift tube, single-field); higher = larger gas-phase ion size;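 further: chemical standards at 10 µM analysed by drift tube IMS-QTOF MS in about 3.95 torr nitrogen, mean of duplicate injections differing ≤1%, mass error below 10 ppm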
Conditions: ion type: [M+]; ion source: APCI; ion mode: Positive
// reported collision cross section in nitrogen per item
Respond numerically; units are Å² and should not be typed.

Oc1ccc2ccc3cccc4ccc1c2c34 [1-Hydroxypyrene] = 141.9
CC1(C)CN=C(NN=C(C=Cc2ccc(C(F)(F)F)cc2)C=Cc2ccc(C(F)(F)F)cc2)NC1 [Hydramethylnon] = 226.3
CC1=CP(=O)(c2ccccc2)CC1 (stereo not drawn) [2,3-Dihydro-4-methyl-1-phenyl-1H-phosphole 1-oxide] = 138
CN1C(=O)N(c2ccccc2Br)Cc2cnc(Nc3ccc4c(c3)OCC(CO)O4)nc21 (stereo not drawn) = 215.4
Cc1cc(CCC(=O)OCC(C)(C)C2OCC3(CO2)COC(C(C)(C)COC(=O)CCc2cc(C)c(O)c(C(C)(C)C)c2)OC3)cc(C(C)(C)C)c1O (stereo not drawn) = 269.1

Challenge: Item under review: Nc1ccc(-c2ccc(N)cc2)cc1 . Reported collision cross section in nitrogen?
Response given: 139.4

Challenge: Item under review: Nc1ccc(Oc2cccc(Oc3ccc(N)cc3)c2)cc1 . Reported collision cross section in nitrogen?
Response given: 177.7

Challenge: Item under review: Oc1ccc(Nc2ccccc2)cc1 . Reported collision cross section in nitrogen?
Response given: 140.4

----------
// reported collision cross section in nitrogen per item
Assay: collision cross section in nitrogen (drift tube, single-field); higher = larger gas-phase ion size
Details: ion type: [M+Na]; ion source: ESI; ion mode: Positive
Respond numerically; units are Å² and should not be typed.

Examples with their reported collision cross section in nitrogen follow.
Cn1cc(-c2ccccc2)c(=O)c(-c2cccc(C(F)(F)F)c2)c1 [1-Methyl-3-phenyl-5-(3-(trifluoromethyl)phenyl)-4-pyridone] = 187.5
CC1(C)[C@@H](O[C@H]2O[C@H](C(=O)O)[C@@H](O)[C@H](O)[C@H]2O[C@@H]2O[C@H](C(=O)O)[C@@H](O)[C@H](O)[C@H]2O)CC[C@]2(C)[C@H]3C(=O)C=C4[C@@H]5C[C@@](C)(C(=O)O)CC[C@]5(C)CC[C@@]4(C)[C@]3(C)CC[C@@H]12 [Ammonium glycyrrhizinate trihydrate] = 294.4

Next compound, collision cross section in nitrogen to be filled in.
Challenge: Item under review: CCc1ccc(C(=O)NN(C(=O)c2cc(C)cc(C)c2)C(C)(C)C)cc1 [Tebufenozide] . Reported collision cross section in nitrogen?
Response given: 201.3

----------
Assay: collision cross section in nitrogen (drift tube, single-field); higher = larger gas-phase ion size
Settings: ion type: [M-H]; ion source: ESI; ion mode: Negative
ATTRIBUTE MEASURED: collision cross section in nitrogen (Å²)
Respond numerically; units are Å² and should not be typed.

Challenge: Item under review: Cc1nc(C)nc(N2C[C@@H](C)N(c3ccnc([C@@H](C)O)n3)[C@@H](C)C2)n1 . Reported collision cross section in nitrogen?
Response given: 192.5

Challenge: Item under review: CC(CCC(=O)O)(c1ccc(O)cc1)c1ccc(O)cc1 [4,4-Bis(4-hydroxyphenyl)valeric acid] . Reported collision cross section in nitrogen?
Response given: 177.5

----------
// reported collision cross section in nitrogen per item
Test: collision cross section in nitrogen (drift tube, single-field); higher = larger gas-phase ion size
Conditions: ion type: [M-H]; ion source: ESI; ion mode: Negative
Respond numerically; units are Å² and should not be typed.

Examples with their reported collision cross section in nitrogen follow.
Cn1cc(-c2ccccc2)c(=O)c(-c2cccc(C(F)(F)F)c2)c1 = 178.9
O=S(=O)(O)c1cc(O)c(O)c(S(=O)(=O)O)c1 = 145.8
COc1cc(CCC(=O)CC(=O)CCc2ccc(O)c(OC)c2)ccc1O [Tetrahydrocurcumin] = 184.8
O=C(Nc1ccccc1)N(Cc1ccc(Cl)cc1)C1CCCC1 = 185.7

Challenge: Item under review: COc1ccc2[nH]cc(CCNC(C)=O)c2c1 . Reported collision cross section in nitrogen?
Response given: 156

Challenge: Item under review: CC1=NN(c2ccc(S(=O)(=O)O)cc2)C(=O)C1 . Reported collision cross section in nitrogen?
Response given: 159.1

----------
Experiment: collision cross section in nitrogen (drift tube, single-field); higher = larger gas-phase ion size
Conditions: ion type: [M+Na]; ion source: ESI; ion mode: Positive
Counter-ions that a name gives are not always drawn.
ATTRIBUTE MEASURED: collision cross section in nitrogen (Å²)
Respond numerically; units are Å² and should not be typed.

COc1cc(OC)c(C(=O)CCCN2CCCC2)c(OC)c1 [Buflomedil hydrochloride] = 178.9
CCCCCCCCCCCCN1CCCC1=O = 176.6
CCCOC(=O)c1ccc(C(=O)OCCC)nc1 [Dipropyl 2,5-pyridinedicarboxylate] = 178.6

Challenge: Item under review: OC(Cc1ccccc1Cl)(Cn1cncn1)C1(Cl)CC1 (centres undefined) . Reported collision cross section in nitrogen?
Response given: 184.1

Challenge: Item under review: CC(C)N(Cc1ccccc1)C(=O)C(C)(C)C . Reported collision cross section in nitrogen?
Response given: 163.4

Challenge: Item under review: CCCCC1(COC(=O)CCC(=O)O)C(=O)N(c2ccccc2)N(c2ccccc2)C1=O . Reported collision cross section in nitrogen?
Response given: 204.5

Challenge: Item under review: CC(C)c1c(C(=O)Nc2ccccc2)c(-c2ccccc2)c(-c2ccc(F)cc2)n1CC[C@@H](O)C[C@@H](O)CC(=O)O . Reported collision cross section in nitrogen?
Response given: 232.2

Challenge: Item under review: CC(C)C(C(=O)OC(C#N)c1cccc(Oc2ccccc2)c1)c1ccc(OC(F)F)cc1 (centres undefined) [Flucythrinate] . Reported collision cross section in nitrogen?
Response given: 208.3

Challenge: Item under review: COC(=O)CCSCCC(=O)OC [Dimethyl 3,3'-thiodipropionate] . Reported collision cross section in nitrogen?
Response given: 146.5

----------
Test: collision cross section in nitrogen (drift tube, single-field); higher = larger gas-phase ion size
Conditions: ion type: [M+Na]; ion source: ESI; ion mode: Positive
collision cross section in nitrogen vs 200 Å²: at or above is condition met, below is condition not met.

Example cases with answers are listed next.
C[C@]12CC[C@@H]3c4ccc(O)cc4C[C@@H](CCCCCCCCCS(=O)CCCC(F)(F)C(F)(F)F)[C@H]3[C@@H]1CC[C@@H]2O (some centres not stated) = condition met
Cc1oc(-c2ccccc2)nc1CCOc1ccc(C[C@H](Nc2ccccc2C(=O)c2ccccc2)C(=O)O)cc1 = condition met
CC(C)(O)c1cnn2c(-c3ccc(F)c(-c4c(F)cccc4C#N)c3)cnc2n1 = condition met
CC(=O)OC[C@H]1O[C@@](COC(C)=O)(O[C@H]2O[C@H](COC(C)=O)[C@@H](OC(C)=O)[C@H](OC(C)=O)[C@H]2OC(C)=O)[C@@H](OC(C)=O)[C@@H]1OC(C)=O [Sucrose octaacetate] = condition met

Switching to the query record.
Challenge: Assess whether reported collision cross section in nitrogen for CNC(=O)ON=C(C)C(C)S(C)(=O)=O (configuration not stated) sits at 200 Å² or higher.
Response given: condition not met

----------
Experiment: collision cross section in nitrogen (drift tube, single-field); higher = larger gas-phase ion size
Conditions: ion type: [M+H]; ion source: APCI; ion mode: Positive
Counter-ions that a name gives are not always drawn.
// reported collision cross section in nitrogen per item
Respond numerically; units are Å² and should not be typed.

Examples with their reported collision cross section in nitrogen follow.
CC(C)C1CCC(Cc2ccc(Cl)cc2)C1(O)Cn1cncn1 (stereo not given) [Ipconazole] = 173.8
Cc1cc2c(cc1C(F)(F)F)N(C(=O)Nc1ccc(Oc3cccnc3C)nc1)CC2 = 214.2
CC(C)Oc1cccc(NC(=O)c2ccccc2C(F)(F)F)c1 [Flutolanil] = 173.1
O=C(Nc1ccc2[nH]ccc2c1)c1cc2cc(F)ccc2n1Cc1cccc(F)c1 = 195.9
O=c1c(-c2ccc(O)cc2)coc2cc(O)cc(O)c12 [Genistein] = 160.3
Nc1ccc(S(=O)(=O)Nc2nccs2)cc1 [Sulfathiazole sodium] = 153.3
CC(C)Oc1ccc(S(=O)(=O)c2ccc(O)cc2)cc1 [4-((4-Isopropoxyphenyl)sulfonyl)phenol] = 180.9
COc1cc(-c2nc(NC(=O)c3cc4cc(C)cc(C)c4n3CC(=O)O)sc2CCC2CCCCC2)c(OC)cc1Cl = 258.5

Challenge: Item under review: O=S(=O)(c1ccc2c(c1)CCCN2)N1CCC[C@@H]2CCCC[C@H]21 . Reported collision cross section in nitrogen?
Response given: 179.5

Challenge: Item under review: Cc1cc(CCC(=O)OCCOCCOCCOC(=O)CCc2cc(C)c(O)c(C(C)(C)C)c2)cc(C(C)(C)C)c1O . Reported collision cross section in nitrogen?
Response given: 233.4

Challenge: Item under review: NC(=O)N1c2ccccc2C=Cc2ccccc21 [Carbamazepine] . Reported collision cross section in nitrogen?
Response given: 150.5

Challenge: Item under review: COc1cccc(-c2ccc(/C=C\CN3CCCCCC3)cc2Cl)c1 . Reported collision cross section in nitrogen?
Response given: 185.2

Challenge: Item under review: O=C(O)COCCN1CCN(C(c2ccccc2)c2ccc(Cl)cc2)CC1 (stereo not given) [Cetirizine hydrochloride (1:2)] . Reported collision cross section in nitrogen?
Response given: 200

Challenge: Item under review: C=C(C)C(=O)NCCCN(C)C [N-(3-Dimethylaminopropyl)methacrylamide] . Reported collision cross section in nitrogen?
Response given: 135.8

Challenge: Item under review: N=C(NCCCCCCNC(=N)NC(=N)Nc1ccc(Cl)cc1)NC(=N)Nc1ccc(Cl)cc1 [Chlorhexidine diacetate] . Reported collision cross section in nitrogen?
Response given: 222.8

Challenge: Item under review: CCCCCCCCCCCCCCN(CCO)CCO [2,2'-(Tetradecylimino)diethanol] . Reported collision cross section in nitrogen?
Response given: 193

Challenge: Item under review: CSc1nc(NC2CC2)nc(NC(C)(C)C)n1 [Cybutryne] . Reported collision cross section in nitrogen?
Response given: 162.8

Challenge: Item under review: CCc1cccc(C)c1N(C(=O)CCl)[C@@H](C)COC [S-Metolachlor] . Reported collision cross section in nitrogen?
Response given: 159.5

Values from the supplement of paper PMC12317010
